system: Recombinant full length human OGA enzyme (Homo sapiens)
Construct: Recombinant full length human OGA enzyme was purchased from Origene
Sequence (O60502 whole entry): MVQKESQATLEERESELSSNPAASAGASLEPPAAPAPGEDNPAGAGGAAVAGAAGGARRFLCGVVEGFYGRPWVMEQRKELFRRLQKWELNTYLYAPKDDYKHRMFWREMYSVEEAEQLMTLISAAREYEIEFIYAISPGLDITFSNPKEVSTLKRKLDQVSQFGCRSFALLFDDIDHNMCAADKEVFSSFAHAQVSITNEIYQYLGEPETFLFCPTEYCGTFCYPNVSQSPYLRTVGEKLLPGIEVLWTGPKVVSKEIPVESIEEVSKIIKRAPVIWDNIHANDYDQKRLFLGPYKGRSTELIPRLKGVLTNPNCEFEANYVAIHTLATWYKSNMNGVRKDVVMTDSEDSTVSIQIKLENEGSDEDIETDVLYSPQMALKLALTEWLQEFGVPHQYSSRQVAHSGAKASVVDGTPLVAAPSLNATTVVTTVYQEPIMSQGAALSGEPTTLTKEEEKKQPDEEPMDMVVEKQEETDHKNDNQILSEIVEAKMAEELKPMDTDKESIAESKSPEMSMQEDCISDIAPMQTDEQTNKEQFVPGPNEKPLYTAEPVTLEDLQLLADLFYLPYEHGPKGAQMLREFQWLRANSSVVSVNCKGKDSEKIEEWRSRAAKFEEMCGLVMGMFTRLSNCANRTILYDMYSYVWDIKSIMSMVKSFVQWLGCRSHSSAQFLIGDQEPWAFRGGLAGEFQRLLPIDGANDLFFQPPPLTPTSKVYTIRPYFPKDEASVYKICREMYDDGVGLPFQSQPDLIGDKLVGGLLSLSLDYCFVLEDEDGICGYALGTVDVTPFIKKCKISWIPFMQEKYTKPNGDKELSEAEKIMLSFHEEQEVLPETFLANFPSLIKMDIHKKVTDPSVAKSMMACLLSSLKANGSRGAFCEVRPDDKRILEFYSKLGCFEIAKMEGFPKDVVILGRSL
assayNotes: OGA Enzyme Inhibition Biochemical Assay
assayConditions: 1 nM OGA, 100 μM 4-MUGlcNAc (Km), pH 6.4, 90 minutes at room temperature, 10-point dose-response from 20 μM
observable: IC50 (nM)

The examples below pair each entry with its known result.
{"compound": "CC(=O)Nc1nc(F)c(CN2C[C@H](Cc3noc(C)n3)CC[C@@H]2C)s1 [Example 4-15]", "system": "Recombinant full length human OGA enzyme (Homo sapiens)", "observedResult": 1.6}
{"compound": "CC(=O)Nc1ncc(CN2CC[C@H](C)[C@H](Cc3ncc(F)cn3)C2)s1 (single isomer, unassigned) [Example 2-39]", "system": "Recombinant full length human OGA enzyme (Homo sapiens)", "observedResult": 1}
{"compound": "CCc1cc2ncnc(CC3CCCN(Cc4cnc(NC(C)=O)s4)C3)c2s1 (centres unmarked) [Example 1-42]", "system": "Recombinant full length human OGA enzyme (Homo sapiens)", "observedResult": 2}

a: CC(=O)Nc1ncc(CN2CCCC(Cc3cc(C)ccn3)C2)s1 (centres unmarked) [Example 1-45]
b: CC(=O)Nc1ncc(CN2CCC[C@H]([C@@H](C)c3ncc(F)cn3)C2)s1 (single isomer, unassigned) [Example 2-31]
c: CC(=O)Nc1ncc(CN2CCC(F)(Cc3ncc(F)cn3)C2)s1 (centres unmarked) [Example 2-16]
Rank entries according to their IC50, from the largest number down. A complete answer lists every label in the requested sequence. c, a, b
(c: 880 nM, a: 24 nM, b: 4 nM)

1: CC(=O)Nc1ncc(CN2CCC(Cc3cncc(F)c3)C2)s1 (centres unmarked) [Example 1-24]
2: CC(=O)Nc1ncc(CN2CCC(Cc3ccc(F)cc3)C2)s1 (centres unmarked) [Example 1-17]
Between 1 and 2 , whose measured IC50 reads higher? When you have decided, please share the label of that item. 2

P: CC(=O)Nc1ncc(CN2CCCC(Cn3cnc4ccccc43)C2)s1 (centres unmarked) [Example 4-24]
Q: CC(=O)Nc1ncc(CN2CCCC(C)(Cc3ncc(F)cn3)C2)s1 (centres unmarked) [Example 2-34]
R: CC(=O)Nc1ncc(CN2CCC[C@H](Cc3ccc(Cl)cc3)C2)s1 (stereo in doubt) [Example 4-25]
S: CC(=O)Nc1nnc(CN2CC[C@H](Cc3cc(C)nc(C)c3)C2)s1 [Example 3-47]
// smallest IC50 at index 0, largest at the end A complete answer lists every label in the requested sequence. R, P, S, Q
